# System: WaGa
# METHOD DESCRIPTION: qHTS assay to identify novel small-molecules to repurpose for Merkel cell carcinoma treatment (AID 1296009); further: nearly all actives have a fitted effect of over 60% in size
# PARTICULARS: MCC and control cell lines, CellTiter-Glo viability, 72 h; series mostly up to 46 µM
# Source text: MCC is a rare and aggressive neuroendocrine skin cancer with limited treatment options. Approximately 80% of MCCs have the Merkel cell polyomavirus (MCPyV) DNA integrated into the host genome (virus-positive: VP-MCC) and viral oncogenes drive oncogenesis. The remaining MCCs are virus-negative (VN-MCC) and are caused by UV mutagenesis. […] Using cell viability as a readout (CellTiter-Glo assay) we found both overlapping and distinct drugs that can be repurposed for the treatment of VP-MCC and VN-MCC. […]
Records with an inconclusive call do not appear. The source made the active and inactive calls. The call rests on the fitted dose curve; in most records, active means well fitted inhibition curve with a large enough effect; inconclusive means small, poorly fitted or top-dose-only effect; inactive means flat fitted curve, though single readings scatter.
Outcome codes: active, inactive

- COMPOUND: "N=c1c2c(-c3ccccc3)c(-c3ccccc3)n(Cc3ccccc3)c2ncn1C1CCC(O)CC1 (configuration not stated)"
  GROUP LABEL: "active"
- COMPOUND: "CC(C)Oc1cccc(NC(=O)c2ccccc2C(F)(F)F)c1"
  GROUP LABEL: "active"
- COMPOUND: "COC(C)(C)CCCC(C)C/C=C/C(C)=C/C(=O)OC(C)C (configuration not stated)"
  GROUP LABEL: "inactive"
- COMPOUND: "CC(C)(C)[C@]1(O)C[C@@H]2OC(=O)C[C@@]23C(=O)O[C@@H]2OC(=O)[C@H](O)C213 (some centres not stated)"
  GROUP LABEL: "inactive"
- COMPOUND: "COc1cccc2c1[C@]13CCN(CC4CC4)[C@H](C2)[C@]1(OC)CCC(=O)C3"
  GROUP LABEL: "inactive"
- COMPOUND: "CCCCCCCCc1ccc(O)cc1"
  GROUP LABEL: "active"
- COMPOUND: "Cc1nc(-c2ccc(-c3ccc(C(=O)N4CCc5cc6c(cc54)C4(CCN(C)CC4)CO6)cc3)c(C)c2)no1"
  GROUP LABEL: "inactive"
- COMPOUND: "C1=C2CCCN[C@H]2[C@@H]2C[C@H]1[C@@H]1CCCCN1C2"
  GROUP LABEL: "inactive"
- COMPOUND: "c1ccc2c(CN3CCNCC3)cccc2c1"
  GROUP LABEL: "inactive"
- COMPOUND: "C#CC1(O)CCC2C3CCC4=CC(=O)CCC4(C)C3CCC21C (configuration not stated)"
  GROUP LABEL: "inactive"
- COMPOUND: "COc1cc([C@@H]2c3cc4c(cc3[C@@H](O)C3COC(=O)C32)OCO4)cc(OC)c1O (some centres not stated)"
  GROUP LABEL: "active"
- COMPOUND: "Nc1c(Cl)c(Cl)c(Cl)c(Cl)c1Cl"
  GROUP LABEL: "inactive"
- COMPOUND: "CC(C)NCC(O)c1ccc([N+](=O)[O-])cc1 (configuration not stated)"
  GROUP LABEL: "inactive"
- COMPOUND: "CS(=O)(=O)c1ccc(C(=O)C2C(=O)CCCC2=O)c([N+](=O)[O-])c1"
  GROUP LABEL: "inactive"
- COMPOUND: "CC(O)=C(C#N)C(=O)Nc1cc(Br)ccc1Br"
  GROUP LABEL: "inactive"
- COMPOUND: "CC(=Cc1csc(C)n1)[C@@H]1C[C@H]2O[C@@H]2CCC[C@H](C)[C@@H](O)[C@@H](C)C(=O)C(C)(C)[C@@H](O)CC(=O)O1"
  GROUP LABEL: "inactive"
- COMPOUND: "CCC(=O)O[C@@H]1C=C2CCC3C(CCC4(C)C3CC[C@@H]4OC(=O)CC)C2CC1 (some centres not stated)"
  GROUP LABEL: "inactive"
- COMPOUND: "Oc1ccc2c3c1O[C@H]1[C@@H](O)C=C[C@H]4[C@@H](C2)NCC[C@@]341"
  GROUP LABEL: "active"
- COMPOUND: "CN1[C@H]2CC(O)C[C@H]1[C@H]1O[C@H]12 (some centres not stated)"
  GROUP LABEL: "inactive"
- COMPOUND: "O=C(O)c1cc(Oc2ccc(C(F)(F)F)cc2Cl)ccc1[N+](=O)[O-]"
  GROUP LABEL: "inactive"
- COMPOUND: "CCN1C[C@]2(OC(=O)c3ccccc3NC(C)=O)CC[C@H](OC)[C@@]34[C@H]5CC6[C@@H](OC)C[C@](O)(C(C[C@@H]23)[C@@H]14)[C@@]5(O)[C@@H]6OC"
  GROUP LABEL: "inactive"
- COMPOUND: "CC(O)CN1CCN(CC(=O)[O-])CCN(CC(=O)[O-])CCN(CC(=O)[O-])CC1.[Gd+3] (configuration not stated)"
  GROUP LABEL: "inactive"
- COMPOUND: "C#C[C@]1(O)C=C[C@@H]2[C@@H]3CCC4=CC(=O)CC[C@@H]4[C@H]3CC[C@@]21CC"
  GROUP LABEL: "inactive"
- COMPOUND: "OCCCBr"
  GROUP LABEL: "inactive"
- COMPOUND: "COc1ccc2c(c1)[C@]13CCCCC1C(C2)N(C)CC3 (some centres not stated)"
  GROUP LABEL: "inactive"
- COMPOUND: "Cc1ccc(Cl)c(O)c1"
  GROUP LABEL: "inactive"
- COMPOUND: "CC[N+]1(CCOC(=O)C(O)(c2ccccc2)c2ccccc2)CCCCC1"
  GROUP LABEL: "inactive"
- COMPOUND: "O=C(O)COc1ccccc1"
  GROUP LABEL: "inactive"
- COMPOUND: "CC(C)N(CCNC(=O)CN1CCCC1=O)C(C)C"
  GROUP LABEL: "inactive"
- COMPOUND: "c1cc2ccc3cccc4ccc(c1)c2c34"
  GROUP LABEL: "inactive"
- COMPOUND: "C=CCON=C(C[C@H]1O[C@@H]2O[C@]3(C)CC[C@@H]4[C@H](C)CC[C@@H]([C@H]1C)[C@@]24OO3)[C@H]1O[C@@H]2O[C@]3(C)CC[C@H]4[C@H](C)CC[C@@H]([C@@H]1C)[C@@]24OO3"
  GROUP LABEL: "active"
- COMPOUND: "C[C@]12CCC(=O)C(O)=C1CC[C@@H]1[C@H]3CCC(=O)[C@@]3(C)CC[C@@H]12"
  GROUP LABEL: "inactive"
- COMPOUND: "CC1=NN=C(c2ccc(N)cc2)c2cc3c(cc2C1)OCO3"
  GROUP LABEL: "inactive"
- COMPOUND: "O=C(O)COc1nc(Cl)c(Cl)cc1Cl"
  GROUP LABEL: "inactive"
- COMPOUND: "CN[C@@H]1Cc2cccc3[nH]c(=O)n(c23)C1"
  GROUP LABEL: "inactive"
- COMPOUND: "O=[N+]([O-])c1ccc([As](=O)(O)O)cc1"
  GROUP LABEL: "inactive"
- COMPOUND: "CC(C)[C@]12O[C@@H]1[C@@H]1O[C@]13[C@]1(O[C@H]1C[C@@H]1C4=C(CC[C@@]13C)C(=O)OC4)[C@H]2O"
  GROUP LABEL: "inactive"
- COMPOUND: "CC(N[C@H]1C[C@H]1c1ccccc1)c1ccc2c(c1)OCCO2 (some centres not stated)"
  GROUP LABEL: "inactive"
- COMPOUND: "O=c1[nH]c2ccccc2n1C1CCN(Cc2ccc(-c3[nH]c4cc5ncnc5cc4nc3-c3ccccc3)cc2)CC1"
  GROUP LABEL: "inactive"
- COMPOUND: "CCOCCOC(C)=O"
  GROUP LABEL: "inactive"
- COMPOUND: "COC(=O)[C@@H](N)CCCN=C(N)N[N+](=O)[O-]"
  GROUP LABEL: "inactive"
- COMPOUND: "O=C1CCC[C@@H]2[C@H]3CCCN4CCC[C@@H](CN12)[C@@H]34"
  GROUP LABEL: "inactive"
